# Test system: giant foxtail
# Test Method Notes: Test C pre-/postemergence test
# Format: in vivo, Setaria faberii
# Condition Context: Postemergence, 62 g ai/ha; scale 0 to 100, 0 no effect, 100 complete control
Recorded measurements of Plant response rating, Foxtail, Giant, one per entry
Reported Property: Plant response rating, Foxtail, Giant

- CCn1nc(C(F)(F)F)c(C[S+]([O-])c2cccc[n+]2[O-])c1OCC(F)(F)F (racemic) [Compound 65]: 0
- Cc1cc[n+]([O-])c(S(=O)(=O)Cc2c(C(F)(F)F)nn(C)c2OC(F)F)c1 [Compound 2]: 0
- Cn1nc(C(F)(F)F)c(C[S+]([O-])c2ccc(Cl)c[n+]2[O-])c1OC(F)F (stereo not shown) [Compound 6]: 30
- Cc1cc[n+]([O-])c([S+]([O-])Cc2c(C(F)(F)F)nn(C)c2OC(F)F)c1 (stereo not shown) [Compound 1]: 0
